Experiment notes: Delivery vehicle size and polydispersity by dynamic light scattering
Assay type: physicochemical
Reported conditions: DLS in PBS; peptoid:DSPC:Cholesterol:DMG-PEG2000 weight ratio 20:1.79:7.16:1.84, mRNA
Starred links: 1 amine or outer side, 2 acyl side, 3 side chain; linkers in the order of their positions; H or OH if unused. Non-standard residues stand in square brackets, D forms with d. Residues, ends and D or L forms follow the SMILES beside them. *: point of attachment. Gly(N-(3-decanoyloxypropyl)) = CCCCCCCCCC(=O)OCCCNCC(=O)O; N(3-lauroyloxypropyl)Gly = CCCCCCCCCCCC(=O)OCCCNCC(=O)O; N(2-decanoyloxyethyl)Gly = CCCCCCCCCC(=O)OCCNCC(=O)O; N(3-imidazol-1-ylpropyl)Gly = O=C(O)CNCCCn1ccnc1; Gly(N-3-morpholinopropyl) = O=C(O)CNCCCN1CCOCC1; X5 = CCCCC(CC)C(=O)OCCCCCCN(CC(=O)[*:2])[*:1]; N(2-ethylhexyl)Gly = CCCCC(CC)CNCC(=O)O; Gly(N-dodecyl) = CCCCCCCCCCCCNCC(=O)O; N(CH(CH2OH)2)Gly = O=C(O)CNC(CO)CO; N(octyl)Gly = CCCCCCCCNCC(=O)O; For = O=C*
Endpoint name: PDI
Output: the number by itself.

These solved cases illustrate the format of a correct answer.
# Molecule, PDI
data = [
    ("CCCCCCCCCC(=O)OCCN(CC(=O)N(CCOC(=O)CCCCCCCCC)CC(=O)N(CC(=O)N(CCOC(=O)CCCCCCCCC)CC(=O)N(CCOC(=O)CCCCCCCCC)CC(=O)N(CC(N)=O)CC(CC)CCCC)CC(CC)CCCC)C(=O)CNC(CO)CO (centres unmarked) [Compound 16] (H-[N(CH(CH2OH)2)Gly][N(2-decanoyloxyethyl)Gly][N(2-decanoyloxyethyl)Gly][N(2-ethylhexyl)Gly][N(2-decanoyloxyethyl)Gly][N(2-decanoyloxyethyl)Gly][N(2-ethylhexyl)Gly]-NH2)", 0.135),
    ("CCCCCCCCCCCCN(CC(=O)N(CC(N)=O)CC(CC)CCCC)C(=O)CN(CCCCCCCC)C(=O)CN(CC(CC)CCCC)C(=O)CN(CCCCCCOC(=O)C(CC)CCCC)C(=O)CN(CCCCCCCC)C(=O)CNC(CO)CO (centres unmarked) [Compound 31] (H-[N(CH(CH2OH)2)Gly][N(octyl)Gly][X5][N(2-ethylhexyl)Gly][N(octyl)Gly][Gly(N-dodecyl)][N(2-ethylhexyl)Gly]-NH2)", 0.091),
    ("CCCCCCCCCC(=O)OCCN(CC(=O)N(CCOC(=O)CCCCCCCCC)CC(=O)N(CC(=O)N(CCOC(=O)CCCCCCCCC)CC(=O)N(CCOC(=O)CCCCCCCCC)CC(=O)N(CC(N)=O)CC(CC)CCCC)CC(CC)CCCC)C(=O)CN(C=O)CCCN1CCOCC1 (centres unmarked) [Compound 76] (For-[Gly(N-3-morpholinopropyl)][N(2-decanoyloxyethyl)Gly][N(2-decanoyloxyethyl)Gly][N(2-ethylhexyl)Gly][N(2-decanoyloxyethyl)Gly][N(2-decanoyloxyethyl)Gly][N(2-ethylhexyl)Gly]-NH2)", 0.095),
    ("CCCCCCCCCCCCN(C=O)CC(=O)N(CCCOC(=O)CCCCCCCCCCC)CC(=O)N(CC(=O)N(CCCn1ccnc1)CC(=O)N(CC(=O)N(CCCOC(=O)CCCCCCCCCCC)CC(=O)N(CCCCCCCCCCCC)CC(N)=O)CC(CC)CCCC)CC(CC)CCCC (centres unmarked) [Compound 85] (For-[Gly(N-dodecyl)][N(3-lauroyloxypropyl)Gly][N(2-ethylhexyl)Gly][N(3-imidazol-1-ylpropyl)Gly][N(2-ethylhexyl)Gly][N(3-lauroyloxypropyl)Gly][Gly(N-dodecyl)]-NH2)", 0.102),
]

[ask] Suppose we examine the molecule CCCCCCCCCC(=O)OCCCN(CC(=O)N(CC(N)=O)CC(CC)CCCC)C(=O)CN(CCCCCCCC)C(=O)CN(CC(CC)CCCC)C(=O)CN(CCCOC(=O)CCCCCCCCC)C(=O)CN(CCCCCCCC)C(=O)CN(C=O)CCCN1CCOCC1 (centres unmarked) [Compound 110] (For-[Gly(N-3-morpholinopropyl)][N(octyl)Gly][Gly(N-(3-decanoyloxypropyl))][N(2-ethylhexyl)Gly][N(octyl)Gly][Gly(N-(3-decanoyloxypropyl))][N(2-ethylhexyl)Gly]-NH2) ; what PDI value has been reported?
[reply] 0.088

From: patent US20260373248A1
